Target Under Test: androgen receptor (Homo sapiens (Human), UniProt P10275)
Sequence (P10275 whole entry, species assumed): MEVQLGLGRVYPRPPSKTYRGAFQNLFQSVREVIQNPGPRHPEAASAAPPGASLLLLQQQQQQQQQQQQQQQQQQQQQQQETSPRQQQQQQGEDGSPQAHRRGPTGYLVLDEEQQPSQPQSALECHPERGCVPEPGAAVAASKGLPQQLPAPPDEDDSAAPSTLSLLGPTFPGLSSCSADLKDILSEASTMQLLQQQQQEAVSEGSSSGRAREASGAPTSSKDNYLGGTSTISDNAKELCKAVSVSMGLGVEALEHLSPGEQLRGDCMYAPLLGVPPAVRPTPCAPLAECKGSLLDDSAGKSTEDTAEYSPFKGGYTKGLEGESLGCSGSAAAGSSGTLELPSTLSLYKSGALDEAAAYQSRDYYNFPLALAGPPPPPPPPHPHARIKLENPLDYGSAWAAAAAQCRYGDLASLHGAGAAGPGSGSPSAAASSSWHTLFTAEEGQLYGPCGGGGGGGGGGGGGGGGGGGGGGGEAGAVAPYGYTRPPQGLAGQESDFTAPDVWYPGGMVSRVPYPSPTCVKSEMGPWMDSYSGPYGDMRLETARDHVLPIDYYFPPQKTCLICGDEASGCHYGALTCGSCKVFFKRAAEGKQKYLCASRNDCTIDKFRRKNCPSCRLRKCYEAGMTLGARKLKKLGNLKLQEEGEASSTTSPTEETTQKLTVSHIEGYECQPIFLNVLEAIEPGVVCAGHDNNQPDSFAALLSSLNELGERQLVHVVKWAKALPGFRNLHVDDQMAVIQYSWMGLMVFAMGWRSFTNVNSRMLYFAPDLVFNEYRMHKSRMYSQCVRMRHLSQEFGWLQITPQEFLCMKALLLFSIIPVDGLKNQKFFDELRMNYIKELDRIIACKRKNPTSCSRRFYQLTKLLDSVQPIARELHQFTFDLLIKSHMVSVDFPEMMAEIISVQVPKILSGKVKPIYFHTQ
Protocol Summary: cell-based
pIC50: −log10 of the molar value.
Measured Parameter: pIC50

{"Compound": "CC[C@]12CC[C@H]3[C@@H](C[C@@H](CO)C4=CC(=O)CC[C@@H]43)[C@@H]1CC[C@@]21C=CC(=O)O1", "Experimental Value": 6.00}
{"Compound": "C[C@]12CC[C@H]3[C@@H](CC4(CC4)C4=CC(=O)CC[C@@H]43)[C@@H]1CC[C@@]21C=CC(=O)O1", "Experimental Value": 6.00}
{"Compound": "C=C[C@@H]1CC2=CC(=O)CC[C@@H]2[C@H]2CC[C@@]3(CC)[C@@H](CC[C@@]34C=CC(=O)O4)[C@@H]21 (stereo in doubt) [Example 10A]", "Experimental Value": 6.00}
{"Compound": "CC[C@]12CC[C@H]3[C@@H](CCC4=C(Cl)C(=O)CC[C@@H]43)[C@@H]1CC[C@@]21C=CC(=O)O1", "Experimental Value": 7.92}
{"Compound": "CC[C@]12CC[C@H]3[C@@H]([C@H](C4CC4)CC4=CC(=O)CC[C@@H]43)[C@@H]1CC[C@@]21C=CC(=O)O1 (stereo in doubt) [Example 11A]", "Experimental Value": 7.80}
{"Compound": "CC[C@]12CC[C@H]3[C@@H]([C@H](C)CC4=CC(=O)CC[C@@H]43)[C@@H]1CC[C@@]21C=CC(=O)O1 (stereo in doubt)", "Experimental Value": 6.00}

---

Target Under Test: mineralocorticoid receptor (Homo sapiens (Human), UniProt P08235)
Sequence (P08235 whole entry): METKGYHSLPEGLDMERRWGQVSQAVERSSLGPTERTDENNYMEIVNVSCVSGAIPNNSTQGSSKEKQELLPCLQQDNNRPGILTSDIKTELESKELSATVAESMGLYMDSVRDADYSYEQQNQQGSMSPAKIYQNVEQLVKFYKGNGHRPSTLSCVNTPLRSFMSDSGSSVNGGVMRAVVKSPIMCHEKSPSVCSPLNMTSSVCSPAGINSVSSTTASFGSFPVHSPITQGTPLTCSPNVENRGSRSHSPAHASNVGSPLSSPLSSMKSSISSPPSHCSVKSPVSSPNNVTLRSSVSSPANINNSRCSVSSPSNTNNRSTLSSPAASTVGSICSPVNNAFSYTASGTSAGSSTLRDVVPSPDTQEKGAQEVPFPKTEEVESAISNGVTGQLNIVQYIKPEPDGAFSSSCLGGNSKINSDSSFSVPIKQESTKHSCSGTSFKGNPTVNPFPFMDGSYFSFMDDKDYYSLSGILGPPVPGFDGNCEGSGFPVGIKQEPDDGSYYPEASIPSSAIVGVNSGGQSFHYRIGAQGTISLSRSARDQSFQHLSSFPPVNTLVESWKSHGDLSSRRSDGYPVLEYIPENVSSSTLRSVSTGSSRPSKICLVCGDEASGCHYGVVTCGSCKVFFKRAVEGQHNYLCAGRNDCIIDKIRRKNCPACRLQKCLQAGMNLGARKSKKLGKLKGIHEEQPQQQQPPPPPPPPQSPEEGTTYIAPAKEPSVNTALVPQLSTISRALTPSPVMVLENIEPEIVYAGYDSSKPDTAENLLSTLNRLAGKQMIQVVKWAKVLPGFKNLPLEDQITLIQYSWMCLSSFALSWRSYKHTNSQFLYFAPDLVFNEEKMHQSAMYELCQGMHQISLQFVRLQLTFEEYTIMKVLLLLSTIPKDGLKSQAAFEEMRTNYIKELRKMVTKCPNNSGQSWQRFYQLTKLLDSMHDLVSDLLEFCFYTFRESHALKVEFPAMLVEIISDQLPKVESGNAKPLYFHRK
Protocol Summary: Antimineralocorticoid action by transactivation test (MDCK luciferase reporter cells)
Condition Summary: in-vitro transactivation, 1 nM aldosterone, read-out: Mineralocorticoid receptor Antagonism IC50
pIC50: −log10 of the molar value.
Measured Parameter: pIC50

{"Compound": "C[C@]12CC[C@H]3[C@@H](CCC4=CC(=O)CC[C@@H]43)[C@@H]1CC1(CC1)[C@@]21C=CC(=O)O1 (stereo in doubt)", "Measured Parameter": "pIC50", "Experimental Value": 6.08}
{"Compound": "C[C@@H]1CC2=CC(=O)CC[C@@H]2[C@H]2CC[C@@]3(C)[C@@H](CC[C@@]34C=CC(=O)O4)[C@@H]21 (stereo in doubt)", "Measured Parameter": "pIC50", "Experimental Value": 6.74}
{"Compound": "CC[C@]12CC[C@H]3[C@@H](CCC4=CC(=O)CC[C@@H]43)[C@@H]1CC[C@@]21C=CC(=O)O1 (stereo in doubt)", "Measured Parameter": "pIC50", "Experimental Value": 7.92}
{"Compound": "CC[C@]12CC[C@H]3[C@@H](C=CC4=CC(=O)CC[C@@H]43)[C@@H]1CC[C@@]21C=CC(=O)O1 (stereo in doubt)", "Measured Parameter": "pIC50", "Experimental Value": 7.00}

---

Target Under Test: androgen receptor (Homo sapiens (Human))
Condition Summary: reference substance 3H-testosterone
Measured Androgen receptor Competition factor, listed per entry for reference.
Measured Parameter: Androgen receptor Competition factor

{"Molecule": "CC[C@]12CC[C@H]3[C@@H](CCC4=C(Cl)C(=O)CC[C@@H]43)[C@@H]1CC[C@@]21C=CC(=O)O1", "Experimental Value": 8.3}
{"Molecule": "CC[C@]12CC[C@H]3[C@@H](CCC4=CC(=O)CC[C@@H]43)[C@@H]1CC[C@@]21C=CC(=O)O1 (stereo in doubt)", "Experimental Value": 3.4}
{"Molecule": "CC[C@@H]1CC2=CC(=O)CC[C@@H]2[C@H]2CC[C@@]3(C)[C@@H](CC[C@@]34C=CC(=O)O4)[C@H]12 (stereo in doubt)", "Experimental Value": 2.8}

---

Target Under Test: androgen receptor (Homo sapiens (Human), UniProt P10275)
Protocol Summary: cell-based

{"Compound": "CC[C@@H]1CC2=CC(=O)CC[C@@H]2[C@H]2CC[C@@]3(CC)[C@@H](CC[C@@]34C=CC(=O)O4)[C@H]12 (stereo in doubt)", "IC50, nM": 1000}
{"Compound": "C[C@]12CC[C@H]3[C@@H](CCC4=C(Cl)C(=O)CC[C@@H]43)[C@@H]1CC[C@@]21C=CC(=O)O1", "IC50, nM": 70.5}
{"Compound": "C[C@]12CC[C@H]3[C@@H]([C@H](C4CC4)CC4=CC(=O)CC[C@@H]43)[C@@H]1CC[C@@]21C=CC(=O)O1 (stereo in doubt) [Example 12A]", "IC50, nM": 48}
{"Compound": "CC[C@@H]1CC2=CC(=O)CC[C@@H]2[C@H]2CC[C@@]3(C)[C@@H](CC[C@@]34C=CC(=O)O4)[C@H]12 (stereo in doubt)", "IC50, nM": 11}
{"Compound": "C[C@]12CC[C@H]3[C@@H](CCC4=CC(=O)CC[C@@H]43)[C@@H]1CC1(CC1)[C@@]21C=CC(=O)O1 (stereo in doubt)", "IC50, nM": 1000}
{"Compound": "C[C@]12CC[C@H]3[C@@H](C=CC4=CC(=O)CC[C@@H]43)[C@@H]1CC[C@@]21C=CC(=O)O1 (stereo in doubt)", "IC50, nM": 1000}
{"Compound": "CC[C@]12CC[C@H]3[C@@H](CC4(CC4)C4=CC(=O)CC[C@@H]43)[C@@H]1CC[C@@]21C=CC(=O)O1", "IC50, nM": 1000}
{"Compound": "CC[C@]12CC[C@H]3[C@@H](CCC4=CC(=O)CC[C@@H]43)[C@@H]1CC[C@@]21C=CC(=O)O1 (stereo in doubt)", "IC50, nM": 19}
{"Compound": "C=C[C@@H]1CC2=CC(=O)CC[C@@H]2[C@H]2CC[C@@]3(C)[C@@H](CC[C@@]34C=CC(=O)O4)[C@@H]21 (stereo in doubt)", "IC50, nM": 1000}
{"Compound": "CC[C@]12CC[C@H]3[C@@H](C=CC4=CC(=O)CC[C@@H]43)[C@@H]1CC[C@@]21C=CC(=O)O1 (stereo in doubt)", "IC50, nM": 100}

---

Target Under Test: UniProt P10275
Protocol Summary: cell-based
Description: 6. Determination of Androgenic/Antiandrogenic Action by Means of Transactivation Tests: The androgenic/antiandrogenic action of the test substances was determined as for the transactivation tests described above. The following modifications were made: In this case reporter cell lines were used (PC3 cells) that express the androgen receptor, and a reporter construct that contains luciferase under the control of a steroid hormone-responsive promoter. […]
Measured Parameter: log10 EC50 (log10 of the value in nM)

{"Compound": "CC[C@@H]1CC2=CC(=O)CC[C@@H]2[C@H]2CC[C@@]3(CC)[C@@H](CC[C@@]34C=CC(=O)O4)[C@H]12 (stereo in doubt) [Example 9A]", "Experimental Value": 0.71}
{"Compound": "C[C@]12CC[C@H]3[C@@H](CCC4=C(Cl)C(=O)CC[C@@H]43)[C@@H]1CC[C@@]21C=CC(=O)O1 [Example 14]", "Experimental Value": 2.00}
{"Compound": "CC[C@]12CC[C@H]3[C@@H](C[C@@H](CO)C4=CC(=O)CC[C@@H]43)[C@@H]1CC[C@@]21C=CC(=O)O1 [Example 15]", "Experimental Value": 3.00}
{"Compound": "CC[C@]12CC[C@H]3[C@@H](CCC4=C(Cl)C(=O)CC[C@@H]43)[C@@H]1CC[C@@]21C=CC(=O)O1 [Example 13]", "Experimental Value": 1.76}
{"Compound": "C[C@]12CC[C@H]3[C@@H](CCC4=CC(=O)CC[C@@H]43)[C@@H]1CC1(CC1)[C@@]21C=CC(=O)O1 (stereo in doubt) [Example 5]", "Experimental Value": 2.15}
{"Compound": "CC[C@]12CC[C@H]3[C@@H](CC4(CC4)C4=CC(=O)CC[C@@H]43)[C@@H]1CC[C@@]21C=CC(=O)O1 [Example 16]", "Experimental Value": 0.04}

---

Target Under Test: mineralocorticoid receptor (Homo sapiens (Human))
Protocol Summary: Antimineralocorticoid action by transactivation test (MDCK luciferase reporter cells)
Condition Summary: in-vitro transactivation, 1 nM aldosterone, read-out: Mineralocorticoid receptor Antagonism IC50
pIC50: −log10 of the molar value.

{"Molecule": "CC[C@]12CC[C@H]3[C@@H](CC4(CC4)C4=CC(=O)CC[C@@H]43)[C@@H]1CC[C@@]21C=CC(=O)O1", "pIC50": 7.12}
{"Molecule": "CC[C@@H]1CC2=CC(=O)CC[C@@H]2[C@H]2CC[C@@]3(CC)[C@@H](CC[C@@]34C=CC(=O)O4)[C@H]12 (stereo in doubt)", "pIC50": 6.89}
{"Molecule": "C[C@]12CC[C@H]3[C@@H](CC4(CC4)C4=CC(=O)CC[C@@H]43)[C@@H]1CC[C@@]21C=CC(=O)O1", "pIC50": 6.28}
